molecular target: CYCLIN K (Homo sapiens); construct: endogenous in cells; host or cells: CAL-120 human breast cancer cells (DSMZ ACC 459); experiment: CYCLIN K nuclear protein level: immunofluorescence/high content analysis in CAL-120 cells; type: cell-based; settings: 24 h, nuclear CCNK staining intensity, median, read-out: CYCLIN K degradation IF, DC50- [mol/l] (median)
Sequence (O75909 whole entry): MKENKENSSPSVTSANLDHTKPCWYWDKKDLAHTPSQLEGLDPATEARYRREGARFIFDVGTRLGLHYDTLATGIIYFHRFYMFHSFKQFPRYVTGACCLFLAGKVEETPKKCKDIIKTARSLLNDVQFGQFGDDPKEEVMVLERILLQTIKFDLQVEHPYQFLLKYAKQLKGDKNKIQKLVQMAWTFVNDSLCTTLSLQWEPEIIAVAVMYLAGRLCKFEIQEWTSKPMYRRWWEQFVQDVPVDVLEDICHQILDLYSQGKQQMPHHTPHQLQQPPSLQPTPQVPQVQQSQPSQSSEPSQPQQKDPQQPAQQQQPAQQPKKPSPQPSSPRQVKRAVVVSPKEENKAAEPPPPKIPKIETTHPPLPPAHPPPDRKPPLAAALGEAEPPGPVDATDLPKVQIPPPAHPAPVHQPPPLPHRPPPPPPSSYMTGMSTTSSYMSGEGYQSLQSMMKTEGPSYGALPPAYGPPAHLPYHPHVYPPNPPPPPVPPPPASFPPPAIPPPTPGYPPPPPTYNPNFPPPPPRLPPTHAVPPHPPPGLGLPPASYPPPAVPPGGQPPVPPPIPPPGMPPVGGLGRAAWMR
Sequence (Q9NYV4 whole entry partner): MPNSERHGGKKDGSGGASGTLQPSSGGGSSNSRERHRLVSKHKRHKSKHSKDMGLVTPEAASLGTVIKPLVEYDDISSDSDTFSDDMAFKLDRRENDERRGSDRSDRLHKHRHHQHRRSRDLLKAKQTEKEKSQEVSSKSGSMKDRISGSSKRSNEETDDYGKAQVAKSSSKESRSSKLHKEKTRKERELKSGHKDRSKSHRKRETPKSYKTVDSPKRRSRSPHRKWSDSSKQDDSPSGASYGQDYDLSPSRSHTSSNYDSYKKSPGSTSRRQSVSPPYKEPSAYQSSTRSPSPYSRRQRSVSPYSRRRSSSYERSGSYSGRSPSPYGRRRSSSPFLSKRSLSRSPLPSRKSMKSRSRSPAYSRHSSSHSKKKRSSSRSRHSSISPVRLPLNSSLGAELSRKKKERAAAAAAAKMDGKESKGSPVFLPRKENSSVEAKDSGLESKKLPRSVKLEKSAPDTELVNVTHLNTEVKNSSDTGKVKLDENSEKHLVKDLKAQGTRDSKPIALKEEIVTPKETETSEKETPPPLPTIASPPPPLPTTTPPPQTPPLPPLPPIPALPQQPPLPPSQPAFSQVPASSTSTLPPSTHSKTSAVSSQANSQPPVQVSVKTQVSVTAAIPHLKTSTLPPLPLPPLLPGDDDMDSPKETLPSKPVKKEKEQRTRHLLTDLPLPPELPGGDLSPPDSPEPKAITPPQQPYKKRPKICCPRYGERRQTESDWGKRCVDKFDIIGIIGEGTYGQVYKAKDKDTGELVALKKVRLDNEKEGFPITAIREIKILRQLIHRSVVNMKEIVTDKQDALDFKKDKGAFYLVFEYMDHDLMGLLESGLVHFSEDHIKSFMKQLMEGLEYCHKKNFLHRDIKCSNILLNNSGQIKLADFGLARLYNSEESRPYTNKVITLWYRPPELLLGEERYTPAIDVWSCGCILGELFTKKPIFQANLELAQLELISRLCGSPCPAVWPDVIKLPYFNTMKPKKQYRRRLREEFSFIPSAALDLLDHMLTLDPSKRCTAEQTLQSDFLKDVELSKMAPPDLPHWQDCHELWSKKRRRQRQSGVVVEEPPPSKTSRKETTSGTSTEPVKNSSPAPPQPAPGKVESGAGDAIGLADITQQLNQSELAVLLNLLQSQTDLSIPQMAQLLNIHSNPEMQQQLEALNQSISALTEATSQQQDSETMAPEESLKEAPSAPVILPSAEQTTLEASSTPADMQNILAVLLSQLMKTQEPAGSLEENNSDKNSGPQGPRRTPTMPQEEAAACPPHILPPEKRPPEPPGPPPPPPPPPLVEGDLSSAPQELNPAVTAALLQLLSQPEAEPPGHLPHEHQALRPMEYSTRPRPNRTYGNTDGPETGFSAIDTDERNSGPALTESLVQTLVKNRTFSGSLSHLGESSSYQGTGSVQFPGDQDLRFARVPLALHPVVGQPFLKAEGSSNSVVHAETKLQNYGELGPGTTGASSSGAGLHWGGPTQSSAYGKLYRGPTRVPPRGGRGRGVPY
Here the recorded DC50 is given for each entry.
Write the answer as a number in nM, unit excluded.

Known results for compounds:
compound: CN1CCCC(n2nc(NCc3nc4ccccc4[nH]3)c3ncc(C4CC4)nc32)CC1 (single isomer, unassigned) [Example 37]
quantitative result: 1.72
//
compound: c1ccc2[nH]c(CNc3nn(C4CCOC4)c4nc(C5CC5)cnc34)nc2c1 (racemic) [Example 10]
quantitative result: 159
//
compound: O=CO.c1ccc(-n2nc(NCc3nc4ccccc4[nH]3)c3ncc(C4CC4)nc32)cc1 [Example 13]
quantitative result: 3.11
//
compound: CN1CCC(n2nc(NCc3nc4c(C(F)(F)F)cccc4[nH]3)c3ncc(C4CC4)nc32)CC1 [Example 7]
quantitative result: 2.62
//
compound: CC1CC(n2nc(NCc3nc4ccccc4[nH]3)c3ncc(C4CC4)nc32)CCO1 (racemic) [Example 44]
quantitative result: 13.5
//
compound: Fc1ccc2[nH]c(CNc3nn(C4CCOCC4)c4nc(C5CC5)cnc34)nc2c1F [Example 32]
quantitative result: 0.877
//
compound: COc1cccc2[nH]c(CNc3nn(C4CCN(C)CC4)c4nc(C5CC5)cnc34)nc12 [Example 2]
quantitative result: 0.704
//
compound: Fc1ccc2[nH]c(CNc3nn(C4CCOCC4)c4nc(C5CC5)cnc34)nc2c1 [Example 53]
quantitative result: 6.41

DC50 lookup needed for CN1CCC(n2nc(NCc3nc4ccccc4[nH]3)c3ncc(C4CC4)nc32)CC1 [Example 1] , thanks.
7.1

Which DC50 reading was recorded for the compound O[C@H]1C[C@@H](Cn2nc(NCc3nc4ccccc4[nH]3)c3ncc(C4CC4)nc32)C1 [Example 71] ?
8.83

Which value of DC50 has been reported for O[C@H]1C[C@H](n2nc(NCc3nc4ccccc4[nH]3)c3ncc(C4CC4)nc32)C1 [Example 43] in the records?
4.79

Name the recorded DC50 for c1ccc2[nH]c(CNc3nn(C4CCNCC4)c4nc(C5CC5)cnc34)nc2c1 [Example 12] .
2.16

Value lookup for DC50; key = OCC1(Cn2nc(NCc3nc4ccccc4[nH]3)c3ncc(C4CC4)nc32)CCC1 [Example 74]
13.6

Given COc1cccc2[nH]c(CNc3nn(C4CCOCC4)c4nc(C5CC5)cnc34)nc12 [Example 24] , state its recorded DC50.
1.22

###

biological target: CYCLIN K (Homo sapiens); construct: endogenous in cells; host or cells: CAL-120 human breast cancer cells (DSMZ ACC 459); assay: CYCLIN K nuclear protein level: immunofluorescence/high content analysis in CAL-120 cells; format: cell-based; settings: 24 h, nuclear CCNK staining intensity, median, read-out: CYCLIN K degradation IF, DC50- [mol/l] (median)
Recorded DC50 determines the label; the label ranges are low = under 4 nM, mid = from 4 nM up to 20 nM, high = 20 nM and over

Which bin should I file CN1CCC(n2nc(NCc3nc4cc(F)ccc4[nH]3)c3ncc(C4CC4)nc32)CC1 under?
low

Exam item: assign CC1CC(n2nc(NCc3nc4ccccc4[nH]3)c3ncc(C4CC4)nc32)CCN1C (racemic) to the correct category.
low

For Cc1cnc2c(NCc3nc4ccccc4[nH]3)nn(C3CCN(C)CC3)c2n1 , which DC50 bin applies?
high

Lab log: COCCn1nc(NCc2nc3ccccc3[nH]2)c2ncc(C3CC3)nc21 — assign DC50 category
high

###

target: CDK12/CyclinK (Homo sapiens, UniProt Q9NYV4); construct: His-CDK12 (aa Q696-S1082); made in house; host or cells: Hi-5 insect cells (baculovirus co-infection with CycK and yeast CAK1); assay: CDK12/CycK high ATP kinase assay (TR-FRET); assay type: biochemical; conditions: 2 mM ATP (high ATP); median; read-out: CDK12/CyclinK, 2 mM ATP (high ATP), IC50 - [mol/l] (median)
Sequence (Q9NYV4 with tags, fused parts or gaps): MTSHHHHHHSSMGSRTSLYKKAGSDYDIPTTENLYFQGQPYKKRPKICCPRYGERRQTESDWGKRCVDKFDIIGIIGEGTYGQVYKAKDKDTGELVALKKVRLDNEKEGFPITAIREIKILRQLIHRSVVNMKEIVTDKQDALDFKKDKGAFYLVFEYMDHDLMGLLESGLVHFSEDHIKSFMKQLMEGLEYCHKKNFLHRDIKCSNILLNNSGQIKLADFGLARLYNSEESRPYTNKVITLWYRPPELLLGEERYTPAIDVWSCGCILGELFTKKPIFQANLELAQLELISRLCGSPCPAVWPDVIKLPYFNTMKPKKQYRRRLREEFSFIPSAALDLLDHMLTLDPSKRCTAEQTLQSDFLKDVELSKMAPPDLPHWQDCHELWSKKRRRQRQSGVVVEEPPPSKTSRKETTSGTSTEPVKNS
Sequence (O75909 with tags, fused parts or gaps partner limits assumed): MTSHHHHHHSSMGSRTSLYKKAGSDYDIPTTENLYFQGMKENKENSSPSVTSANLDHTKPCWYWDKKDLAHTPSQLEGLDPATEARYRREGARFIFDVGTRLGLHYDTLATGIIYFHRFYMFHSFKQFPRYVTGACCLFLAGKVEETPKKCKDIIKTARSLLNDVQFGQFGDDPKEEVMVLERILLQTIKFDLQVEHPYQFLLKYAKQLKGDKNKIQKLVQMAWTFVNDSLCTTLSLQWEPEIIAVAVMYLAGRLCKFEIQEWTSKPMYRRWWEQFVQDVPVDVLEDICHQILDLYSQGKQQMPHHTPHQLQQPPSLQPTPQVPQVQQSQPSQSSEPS
A collection of molecules and their measured IC50

Guide cases for IC50, answers given:
molecule: O[C@H]1CC[C@H](n2nc(NCc3nc4ccccc4[nH]3)c3ncc(C4CC4)nc32)CC1
IC50: 6.17 µM
--
molecule: COCCC(C)n1nc(NCc2nc3ccccc3[nH]2)c2ncc(C3CC3)nc21 (single isomer, unassigned; (-)) [Example 58]
IC50: > 20 µM
--
molecule: Cc1c(F)ccc2[nH]c(CNc3nn(C4CCN(C)CC4)c4nc(C5CC5)cnc34)nc12
IC50: > 20 µM

What value of IC50 has been reported for the following molecule? CC(C)(C)OC(=O)N1CCC(n2nc(NCc3nc4ccccc4[nH]3)c3ncc(C4CC4)nc32)CC1
> 20 µM

Fill blank: measured IC50 of the molecule c1ccc2[nH]c(CNc3nn(C4CCC4)c4nc(C5CC5)cnc34)nc2c1 is ____.
> 20 µM

Which IC50 value belongs to Cc1cccc2[nH]c(CNc3nn(C4CCOCC4)c4nc(C5CC5)cnc34)nc12 ?
> 20 µM

Look up IC50: c1ccc2[nH]c(CNc3nn(C4CCNCC4)c4nc(C5CC5)cnc34)nc2c1
> 20 µM

Requested field: IC50. Item: CC(C)(O)Cn1nc(NCc2nc3ccccc3[nH]2)c2ncc(C3CC3)nc21
> 10 µM

I'd like to know its IC50. The molecule in question is CN1CCCC(n2nc(NCc3nc4ccccc4[nH]3)c3ncc(C4CC4)nc32)CC1 (single isomer, unassigned) [Example 37]
> 20 µM

Query (molecule): CC1(C)CC(n2nc(NCc3nc4ccccc4[nH]3)c3ncc(C4CC4)nc32)CC(C)(C)O1 ; field requested: IC50
> 20 µM

# get_value(readout='IC50', item= COc1cccc2[nH]c(CNc3nn(C4CCOCC4)c4nc(C5CC5)cnc34)nc12 )
18.2 µM

Which IC50 value belongs to Fc1cccc2[nH]c(CNc3nn(C4CCOCC4)c4nc(C5CC5)cnc34)nc12 ?
12.3 µM

Reported IC50, molecule OCCn1nc(NCc2nc3ccccc3[nH]2)c2ncc(C3CC3)nc21 : ____
> 20 µM

What does the data say about its IC50? Entry: COCCC(C)n1nc(NCc2nc3ccccc3[nH]2)c2ncc(C3CC3)nc21 (racemic) [Example 57]
> 20 µM

Form field: reported IC50 of COCCC(C)n1nc(NCc2nc3ccccc3[nH]2)c2ncc(C3CC3)nc21 (single isomer, unassigned; (+)) [Example 59]
> 20 µM

###

target: CDK12 (Homo sapiens, UniProt Q9NYV4); construct: endogenous in cells; host or cells: CAL-120 human breast cancer cells (DSMZ ACC 459); experiment: CDK12 nuclear protein level: immunofluorescence/high content analysis in CAL-120 cells; format: cell-based; conditions: CAL-120 cells; 24 h; nuclear CDK12 staining intensity; median; read-out: CDK12 degradation IF DC50 - [mol/l] (median)
Sequence (Q9NYV4 whole entry): as the sequence (Q9NYV4 whole entry partner) above
Sequence (O75909 whole entry partner): as the sequence (O75909 whole entry) above
As shown below, each of these compounds has a reported DC50 value.
Please state the figure in nM; there is no need to write the unit.

Study these solved cases before continuing.
compound: c1ccc2[nH]c(CNc3nn(CC4CCC4)c4nc(C5CC5)cnc34)nc2c1
DC50 [nM]: 135
--
compound: COCCn1nc(NCc2nc3ccccc3[nH]2)c2ncc(C3CC3)nc21
DC50 [nM]: 20.5
--
compound: CN1CCC(n2nc(NCc3nc4ccccc4[nH]3)c3ncc(C4CC4)nc32)C1 (racemic) [Example 35]
DC50 [nM]: 19.1

API: value(readout= DC50, system= CDK12 (Homo sapiens, UniProt Q9NYV4), query= CN(C)CCn1nc(NCc2nc3ccccc3[nH]2)c2ncc(C3CC3)nc21 )
29.1

Identify the measured DC50 of OCCCn1nc(NCc2nc3ccccc3[nH]2)c2ncc(C3CC3)nc21 for CDK12 (Homo sapiens, UniProt Q9NYV4).
41.2

Report DC50 for c1ccc2[nH]c(CNc3nn(C4C[C@H]5CC[C@@H](C4)O5)c4nc(C5CC5)cnc34)nc2c1 (some centres unmarked) tested on CDK12 (Homo sapiens, UniProt Q9NYV4).
8.11

Find the measured DC50: item CN1CCC(n2nc(NCc3nc4ccccc4[nH]3)c3ncc(C4CC4)nc32)CC1 , target or system CDK12 (Homo sapiens, UniProt Q9NYV4).
4.2

Fill in the recorded DC50 for this compound, with CDK12 (Homo sapiens, UniProt Q9NYV4) as test system: CC(C)(O)CCn1nc(NCc2nc3ccccc3[nH]2)c2ncc(C3CC3)nc21
2.17

###

target: CDK12 (Homo sapiens, UniProt Q9NYV4); construct: endogenous in cells; host or cells: CAL-120 human breast cancer cells (DSMZ ACC 459); test: CDK12 nuclear protein level: immunofluorescence/high content analysis in CAL-120 cells; type: cell-based; settings: ratio of IC50 CDK12 hATP (2 mM ATP) to DC50 CDK12 (IF, CAL-120)
Parameter (IC50 CDK12 high ATP) to (Degradation DC50 CDK12) ratio: see the listing below.

For orientation, consider the following solved cases.
compound: CN1CCC(n2nc(NCc3nc4c(OC(F)(F)F)cccc4[nH]3)c3ncc(C4CC4)nc32)CC1 [Example 5]
result: >239

compound: c1ccc2[nH]c(CNc3nn(C4CCCC4)c4nc(C5CC5)cnc34)nc2c1 [Example 39]
result: >534

compound: CN1CCC(n2nc(NCc3nc4cc(SC(F)(F)F)ccc4[nH]3)c3ncc(C4CC4)nc32)CC1 [Example 27]
result: 41

compound: CN1CCCC(n2nc(NCc3nc4ccccc4[nH]3)c3ncc(C4CC4)nc32)CC1 (single isomer, unassigned) [Example 37]
result: >1589

compound: CC(CCN(C)C)n1nc(NCc2nc3ccccc3[nH]2)c2ncc(C3CC3)nc21 (single isomer, unassigned) [Example 64]
result: >242

Now consider the entry below.
Recorded (IC50 CDK12 high ATP) to (Degradation DC50 CDK12) ratio for COCCC(C)n1nc(NCc2nc3ccccc3[nH]2)c2ncc(C3CC3)nc21 (racemic) [Example 57] , please?
>118

Where do these numbers come from? They come from patent US20230192700A1.
